Hey, just so you know, these numbers are from patent US10385022B2.

target: human GPBAR1 receptor (Homo sapiens (Human)); experiment: functional cAMP assay in CHO-dhfr(minus) cells expressing human GPBAR1 receptors; conditions: CHO-dhfr(minus) cells expressing human GPBAR1, 30 min at 30° C.
Sequence (Q8TDU6 whole entry): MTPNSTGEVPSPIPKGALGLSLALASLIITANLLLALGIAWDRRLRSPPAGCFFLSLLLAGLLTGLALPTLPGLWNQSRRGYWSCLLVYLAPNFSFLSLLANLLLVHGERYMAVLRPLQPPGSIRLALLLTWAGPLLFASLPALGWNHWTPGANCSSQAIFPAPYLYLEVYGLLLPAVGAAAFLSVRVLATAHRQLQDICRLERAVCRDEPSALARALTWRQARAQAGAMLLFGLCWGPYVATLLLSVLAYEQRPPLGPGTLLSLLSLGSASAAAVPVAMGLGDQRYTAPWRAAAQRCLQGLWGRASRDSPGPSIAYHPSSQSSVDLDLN
pEC50: −log10 of the molar value.
Readout: pEC50

// below: answered compounds
molecule=COC(=O)CN(C(=O)c1cc(C(F)(F)F)cc(S(C)(=O)=O)c1)c1cnccc1-c1cc(F)c(F)cc1OC readout=pEC50 observed_value=6.20
molecule=Cc1ccccc1-c1ccncc1N(C)C(=O)c1cc(C(F)(F)F)cc(S(=O)(=O)N(C)C)c1 readout=pEC50 observed_value=7.54
molecule=COc1cc(F)ccc1-c1ccncc1N(CC(F)(F)F)C(=O)c1cc(F)cc(C(F)(F)F)c1 readout=pEC50 observed_value=6.04
molecule=COc1ccc(-c2ccncc2N(C)C(=O)c2cc(C(F)(F)F)cc(C(F)(F)F)c2)cn1 readout=pEC50 observed_value=5.53
molecule=NC(=O)CN(C(=O)c1cc(C(F)(F)F)nc(C(F)(F)F)c1)c1cnccc1-c1ccccc1F readout=pEC50 observed_value=6.98
molecule=COc1cc(F)ccc1-c1ccncc1N(Cc1ncc(C)o1)C(=O)c1cc(C(F)(F)F)cc(S(C)(=O)=O)c1 readout=pEC50 observed_value=5.66
molecule=COc1cc(F)ccc1-c1cc(C)ncc1N(C)C(=O)c1cc(SCCCCC(=O)NCC(=O)O)cc(C(F)(F)F)c1 readout=pEC50 observed_value=6.35
molecule=CN(C(=O)c1cc(C(F)(F)F)cc(S(C)(=O)=O)c1)c1cnccc1-c1ccccc1OC(F)(F)F readout=pEC50 observed_value=7.47
molecule=COC(=O)CN(C(=O)c1cc(C(F)(F)F)cc(C(F)(F)F)c1)c1cnccc1-c1cc(F)c(F)cc1OC readout=pEC50 observed_value=7.15
molecule=COc1cc(F)ccc1-c1ccncc1N(C)C(=O)c1cc(C(F)(F)F)nc(S(C)(=O)=O)c1 readout=pEC50 observed_value=7.23

P. COc1cc(F)ccc1-c1ccncc1N(CC#N)C(=O)c1cc(C(F)(F)F)cc(S(C)(=O)=O)c1
Q. CN(C(=O)c1cc(C(C)(C)O)cc(C(F)(F)F)c1)c1cnccc1-c1ccccc1Cl
R. COc1cc(F)ccc1-c1ccncc1N(C)C(=O)c1cc(OC(F)(F)F)cc(S(C)(=O)=O)c1
Ask | // sort entries: pEC50, high to low In your reply, arrange the labels in the requested order.
Reply | P, R, Q
(P: 7.24, R: 6.77, Q: 6.15)

P. COc1cc(F)c(F)cc1-c1ccncc1N(CC(N)=O)C(=O)c1cc(C(F)(F)F)nc(C(F)(F)F)c1
Q. COc1cc(F)ccc1-c1ccncc1N(C)C(=O)c1cc(SC2CN(C(=O)OC(C)(C)C)C2)cc(C(F)(F)F)c1
Ask | Please let me know which one, P or Q , has a lower measured pEC50 value. Could you answer with the label of the item you picked?
Reply | Q
(Q: 6.11, P: 7.27)

A. O=C(c1cc(C(F)(F)F)nc(C(F)(F)F)c1)N(CC(F)F)c1cnccc1-c1ccccc1F
B. COc1nc(C)ccc1-c1ccncc1N(C)C(=O)c1cc(C(F)(F)F)cc(C(F)(F)F)c1
C. CN(C(=O)c1cc(C(F)(F)F)cc(S(C)(=O)=O)c1)c1cnccc1-c1cccnc1OC1CN(C(=O)OC(C)(C)C)C1
D. COc1cc(F)c(F)cc1-c1ccncc1N(C)C(=O)c1cc(F)cc(C(F)(F)F)c1
Ask | Could you please order the items by pEC50, going from the lowest number to the highest? In your reply, arrange the labels in the requested order.
Reply | C, D, B, A
(C: 5.57, D: 6.78, B: 7.17, A: 7.42)

I. Cc1ccc(F)c(-c2ccncc2N(C)C(=O)c2cc(C(F)(F)F)cc(C(F)(F)F)c2)c1
II. CN(C(=O)c1cc(C(F)(F)F)cc(C(F)(F)F)c1)c1cnccc1-c1ccc(F)cc1Cl
III. CS(=O)(=O)CCN(C(=O)c1cc(C(F)(F)F)cc(S(C)(=O)=O)c1)c1cnccc1-c1ccccc1OC(F)(F)F
Ask | // sort entries: pEC50, high to low In your reply, arrange the labels in the requested order.
Reply | II, I, III
